System: skin melanocytes
Experiment: Chloasma model of guinea pig: pathomorphological observation of skin melanocytes
Format: in vivo
Conditions: 0.25% cream once a day, 30 days
Given measured Number density of melanocytes, output t if it is greater than or equal to 2 and f if not.

>  <Compound>
O=C(c1ccc(-n2nnc3cccnc32)cc1)N(c1ncccc1Cl)[C@@H]1CCNC1

>  <Assigned Category>
f

$$$$
>  <Compound>
CCN1CCC[C@@H](N(C(=O)c2ccc(-n3nnc4cccnc43)cc2)c2ncccc2Cl)C1

>  <Assigned Category>
f

$$$$
>  <Compound>
O=C(c1ccc(-n2nnc3cccnc32)cc1)N(c1ncccc1Cl)C1CCCC(O)C1 (stereo not shown)

>  <Assigned Category>
t

$$$$
>  <Compound>
COC1CCCC(N(C(=O)c2ccc(-n3nnc4cccnc43)cc2)c2ncccc2Cl)C1 (stereo not shown)

>  <Assigned Category>
f

$$$$
>  <Compound>
NC1CCCC(N(C(=O)c2ccc(-n3nnc4cccnc43)cc2)c2ncccc2Cl)C1 (stereo not shown)

>  <Assigned Category>
t

$$$$
>  <Compound>
CNC1CCCC(N(C(=O)c2ccc(-n3nnc4cccnc43)cc2)c2ncccc2Cl)C1 (stereo not shown)

>  <Assigned Category>
t

$$$$
>  <Compound>
O=C(c1ccc(-c2ccccc2Cl)cc1)N(c1ncccc1Cl)[C@@H]1CCCNC1

>  <Assigned Category>
t

$$$$
>  <Compound>
O=C(c1ccc(-c2ccccc2-c2nnn[nH]2)cc1)N(c1ncccc1Cl)[C@@H]1CCCNC1

>  <Assigned Category>
t

$$$$
>  <Compound>
CN1CCC[C@@H](N(C(=O)c2ccc(-n3nnc4cccnc43)cc2)c2ncccc2Cl)C1

>  <Assigned Category>
f

$$$$
